# Tested on: C57BL/6 mouse
# protocol_summary: Assessment of glucose tolerance improvement effect in mouse
# Type: in vivo
# condition_description: 2 h; 10 mg/kg oral, 30 min before oral glucose 2 g/kg; male C57BL/6 mouse; blood glucose AUC
Known inhibition in vivo at 10 mg/kg of a selection of compounds

{"compound": "CCc1cnc(N2CCC(CCCOc3cc(F)c(C4=NC[C@H](C)O4)c(F)c3)CC2)nc1 [Example 4]", "test_target": "C57BL/6 mouse", "inhibition in vivo at 10 mg/kg": "< 30%"}
{"compound": "CCc1cnc(N2CCC(CCCOc3cc(F)c(C4=NC[C@@H](C)O4)c(F)c3)CC2)nc1 [Example 5]", "test_target": "C57BL/6 mouse", "inhibition in vivo at 10 mg/kg": "> 40%"}
{"compound": "CCc1cnc(N2CCC(CCCOc3cc(F)c(C4=NC[C@H](CO)O4)c(F)c3)CC2)nc1 [Example 7]", "test_target": "C57BL/6 mouse", "inhibition in vivo at 10 mg/kg": "< 30%"}
{"compound": "CC(C)c1noc(N2CCC(CCCOc3cc(F)c(-c4noc(C(C)C)n4)c(F)c3)CC2)n1 [Example 40]", "test_target": "C57BL/6 mouse", "inhibition in vivo at 10 mg/kg": "30 to 40%"}
{"compound": "CCc1cnc(N2CCC(CCCOc3cc(F)c(-c4nnc(C)o4)c(F)c3)CC2)nc1 [Example 42]", "test_target": "C57BL/6 mouse", "inhibition in vivo at 10 mg/kg": "> 40%"}
{"compound": "CC(C)c1noc(N2CCC(CCCOc3cc(F)c(C4=NCC(C)(C)O4)c(F)c3)CC2)n1 [Example 12]", "test_target": "C57BL/6 mouse", "inhibition in vivo at 10 mg/kg": "> 40%"}
{"compound": "CCCc1cnc(N2CCC(CCCOc3cc(F)c(-c4noc(C(C)C)n4)c(F)c3)CC2)nc1 [Example 23]", "test_target": "C57BL/6 mouse", "inhibition in vivo at 10 mg/kg": "> 40%"}
{"compound": "CCc1cnc(N2CCC(CCCOc3cc(F)c(-c4noc(C(C)(C)CO)n4)c(F)c3)CC2)nc1 [Example 22]", "test_target": "C57BL/6 mouse", "inhibition in vivo at 10 mg/kg": "30 to 40%"}
